Target: UniProt Q99873
Sequence (Q99873 whole entry, looked up): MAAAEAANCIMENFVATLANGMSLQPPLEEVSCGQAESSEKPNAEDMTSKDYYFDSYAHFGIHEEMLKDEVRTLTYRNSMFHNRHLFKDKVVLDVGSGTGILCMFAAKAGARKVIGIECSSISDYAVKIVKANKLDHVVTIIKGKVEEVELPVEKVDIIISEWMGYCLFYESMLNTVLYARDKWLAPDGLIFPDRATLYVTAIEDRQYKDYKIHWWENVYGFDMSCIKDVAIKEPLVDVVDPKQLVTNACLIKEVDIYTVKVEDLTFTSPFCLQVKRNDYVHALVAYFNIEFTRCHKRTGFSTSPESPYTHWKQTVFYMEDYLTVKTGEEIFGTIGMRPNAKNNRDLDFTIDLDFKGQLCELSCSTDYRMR
Assay: Inhibition of recombinant human N-terminal GST-tagged PRMT1 (2 to end residues) expressed in baculovirus infected Sf9 insect cells at 9 uM using biotinylated histone H4 peptide as substrate preincubated for 15 mins followed by substrate/[3H]-SAM addition measured after 60 mins by microbeta liquid scintillation counting analysis
Value Kind: inhibition (%)
Respond with the bare value in %.

Query string: Lab note: need inhibition with UniProt Q99873 for entry CNCCN(C)Cc1ccc(-c2cccc(C(F)(F)F)c2)o1 , please look it up.
Result string: 43

Query string: API: value(readout= inhibition, system= UniProt Q99873, query= COC(=O)c1ccc(-c2ccc(CN(C)CCN)o2)cc1 )
Result string: 30

Query string: Checklist item: inhibition tested on UniProt Q99873, entry CNCCN(C)c1nnnn1Cc1ccc(C(F)(F)F)cc1 , value?
Result string: 2

Query string: Find the measured inhibition: item CNCCN(C)Cc1ccc(-c2cccc(OC(F)(F)F)c2)o1 , target or system UniProt Q99873.
Result string: 41

Query string: Query the reported inhibition for UniProt Q99873; item: CNCCN(C)c1nnnn1Cc1cccc(C(F)(F)F)c1
Result string: 8

Query string: API: value(readout= inhibition, system= UniProt Q99873, query= CNCCN(C)Cc1ccc(-c2ccc(C(=O)OC)cc2)o1 )
Result string: 32

Query string: State its inhibition on UniProt Q99873: CN(CCN)Cc1ccc(-c2ccc(C(F)(F)F)cc2)o1
Result string: 37

Query string: Field: inhibition (UniProt Q99873). Entry: COc1cccc(-c2ccc(CN(C)CCN)o2)c1
Result string: 24

Query string: What value of inhibition on UniProt Q99873 does CNCCN(C)c1nnnn1Cc1ccc(OC)cc1 have?
Result string: 0

Query string: UniProt Q99873 / inhibition / CNCCN(C)c1nnnn1Cc1ccccc1OC(F)(F)F : value?
Result string: 9

Query string: Please tell me: inhibition of CNCCN(C)Cc1ccc(-c2cccc(C(=O)OC)c2)o1 , system UniProt Q99873?
Result string: 51

Query string: Query for UniProt Q99873: what inhibition does the record show for CN(CCN)Cc1ccc(-c2cccc(OC(F)(F)F)c2)o1 ?
Result string: 46

Query string: For the record CNCCN(C)Cc1ccc(-c2ccc(OC(F)(F)F)cc2)o1 , what value of inhibition is listed for UniProt Q99873?
Result string: 40

Query string: Can you look up inhibition on UniProt Q99873 for Nc1ncnc2c1ncn2[C@@H]1O[C@H](CSCC[C@H](N)C(=O)O)[C@@H](O)[C@H]1O ?
Result string: 90

Query string: Notebook: pull reported inhibition for UniProt Q99873, entry COc1ccc(-c2ccc(CN(C)CCN)o2)cc1
Result string: 25

Query string: Tell me reported inhibition for CNCCN(C)c1nnnn1Cc1ccc(C#N)cc1 , tested with UniProt Q99873.
Result string: 6

Query string: Query inhibition on UniProt Q99873 for CNCCN(C)Cc1ccc(-c2cccc(C#N)c2)o1
Result string: 33
